Source: the NIST ThermoML archive (doi:10.1021/je100377k)

Property: mass density; scope: individual compounds
# details: 333.15 K; 101.33 kPa; Liquid
Note: unit kg/m3 is implicit; provide only the numeric part.

Before answering, review these 3 worked examples.
* CCC[n+]1cccc(C)c1.O=S(=O)([N-]S(=O)(=O)C(F)(F)F)C(F)(F)F | 1414.9
* CCCC[n+]1ccccc1.O=S(=O)([N-]S(=O)(=O)C(F)(F)F)C(F)(F)F [1-butylpyridinium bis[(trifluoromethyl)sulfonyl]imide] | 1416.1
* CCCCCCCC[n+]1cccc(C)c1 | 1299.5

stdin: mass density for CCCCCC[n+]1ccccc1.O=S(=O)([N-]S(=O)(=O)C(F)(F)F)C(F)(F)F [1-hexylpyridinium bis(trifluromethylsulfonyl)imide] ?
stdout: 1362.9

stdin: Form field: reported mass density of CCCC[n+]1cccc(C)c1.O=S(=O)([N-]S(=O)(=O)C(F)(F)F)C(F)(F)F
stdout: 1380.9

stdin: # query: mass density of entry CCCC[n+]1ccc(C)cc1.O=S(=O)([N-]S(=O)(=O)C(F)(F)F)C(F)(F)F
stdout: 1379.8
